The values you see were collected from ChEMBL document CHEMBL2346571.

# pKi per record follows
Target: Cannabinoid receptor 1 (Homo sapiens)
Sequence (P21554 whole entry): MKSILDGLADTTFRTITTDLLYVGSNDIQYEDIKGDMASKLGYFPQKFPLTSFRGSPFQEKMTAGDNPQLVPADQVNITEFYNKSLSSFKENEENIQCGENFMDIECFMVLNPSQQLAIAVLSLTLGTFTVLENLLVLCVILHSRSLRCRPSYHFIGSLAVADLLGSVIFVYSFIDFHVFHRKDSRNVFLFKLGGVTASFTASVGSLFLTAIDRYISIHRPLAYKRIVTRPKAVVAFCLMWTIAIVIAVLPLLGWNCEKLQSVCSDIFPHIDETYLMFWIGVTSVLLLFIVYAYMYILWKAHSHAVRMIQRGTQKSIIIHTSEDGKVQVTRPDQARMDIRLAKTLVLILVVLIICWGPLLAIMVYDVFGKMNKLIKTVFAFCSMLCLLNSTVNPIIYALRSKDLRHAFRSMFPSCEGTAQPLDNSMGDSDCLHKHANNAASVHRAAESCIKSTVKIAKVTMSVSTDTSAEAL
Assay: Displacement of [3H]-CP55940 from human CB1 receptor after 90 mins by liquid scintillation spectrophotometer analysis
pKi: −log10 of the molar value.

Consider the reported pKi for these molecules:
CCCCCCCCCCCCCCCCNC(=O)c1nn(-c2ccccc2)c(-c2ccccc2)c1C    < 5.00
CCCCCc1cc(-c2ccc(Cl)cc2)n(-c2ccc(Cl)cc2Cl)n1    < 4.40
CCCCCCCC/C=C\CCCCCCCCNC(=O)c1nc(-c2ccc(Cl)cc2)n(-c2ccc(Cl)cc2)n1    < 4.40
CCCCCCCC/C=C\CCCCCCCCNC(=O)c1cc(-c2ccccc2)n(-c2ccccc2)n1    < 4.40

Now take the following molecule into account.
## Task So what's the measured pKi for this one? `CCCCCCCCCCCCCCCCNC(=O)c1cc(-c2ccccc2)n(-c2ccccc2)n1`
## Result < 4.40
